test system: Fibroblast; test: Multiplex assay against human fibroblast; assay type: toxicity, cell-based; conditions: 12 h, 1 µM, compound concentration 1 uM, replicate 2
Below is a list of entries, each paired with its recorded Population Mitotic Cells (%) value.
Just the number in %, nothing appended.

compound="Cl.Cl.OCCOCCN1CCN(C(c2ccccc2)c2ccc(Cl)cc2)CC1 (stereo not given) [HYDROXYZINE HYDROCHLORIDE]" test_target=Fibroblast measurement_name="Population Mitotic Cells (%)" assay_value=48

Now for the compound whose Population Mitotic Cells (%) we want.
stdin: Recorded Population Mitotic Cells (%) of Cc1ccc(OCC(O)C(C)NC(C)C)c2c1CCC2.Cl (stereo not given) , please.
stdout: 71

###

Below is a list of entries, each paired with its recorded Population Fragmented Nuclei (%) value.
test system: U2OS; experiment: Multiplex assay against U2OS; type: toxicity, cell-based; conditions: human, 12 h, 10 µM, compound concentration 10 uM, replicate 2
Just the number in %, nothing appended.

compound="CCn1c(-c2nc3cc(C(=O)N4CCCC(N)C4)ccc3n2C)cc2ccccc21.Cl (stereo not given)" test_target=U2OS measurement_name="Population Fragmented Nuclei (%)" assay_value=21
compound=Cc1cc(O)c(-c2ccc([C@@H](C)CN(C)C)cc2)c2c1[nH]c(=O)c1sccc12 test_target=U2OS measurement_name="Population Fragmented Nuclei (%)" assay_value=20
compound=CC(C)C[C@H](CO)Nc1nc(S[C@@H](C)c2ccccc2)nc2nc(N)sc12 test_target=U2OS measurement_name="Population Fragmented Nuclei (%)" assay_value=9
compound=COc1cc(OC2CCN(C(C)=O)CC2)ccc1C(=O)N1CCC(N2C(=O)OCc3ccccc32)CC1 test_target=U2OS measurement_name="Population Fragmented Nuclei (%)" assay_value=13
compound=Nc1nc(-c2ccco2)c2cnn(Cc3ccccc3F)c2n1 test_target=U2OS measurement_name="Population Fragmented Nuclei (%)" assay_value=20

stdin: Recorded Population Fragmented Nuclei (%) of Nc1nc(CC(=O)Nc2ccc(CCNC[C@H](O)c3ccccc3)cc2)cs1 , please.
stdout: 21

###

test system: HEK-293T; experiment: Multiplex assay against HEK293T; format: toxicity, cell-based; details: human, 48 h, 1 µM, compound concentration 1 uM, replicate 1
Measurement Name: Population Mitotic Cells (%)
Just the number in %, nothing appended.

molecule="COC(c1ccccc1)(c1ccccc1)[C@H](Oc1nc(C)cc(C)n1)C(=O)O [AMBRISENTAN]" unit_of_measurement=% assay_value=72

stdin: Recorded Population Mitotic Cells (%) of CC(C)(C)c1ccc(CSc2cnn(C(C)(C)C)c(=O)c2Cl)cc1 [PYRIDABEN] , please.
stdout: 80

stdin: Now give it for CCn1c(-c2nc3cc(C(=O)N4CCCC(N)C4)ccc3n2C)cc2ccccc21.Cl (stereo unspecified) too.
stdout: 79

stdin: Now give it for Cc1cc(NC(=O)NCCN2CCC(O)(Cc3ccccc3)CC2)c2ccccc2n1 [PALOSURAN] too.
stdout: 80

stdin: Now give it for O=C(Nc1cc(-c2ccccc2)nn1-c1ccccc1F)c1ccc([N+](=O)[O-])cc1 too.
stdout: 82

stdin: Now give it for Nc1nc(CC(=O)Nc2ccc(CCNC[C@H](O)c3ccccc3)cc2)cs1 [MIRABEGRON] too.
stdout: 81

###

tested on: U2OS; test: Multiplex assay against U2OS; format: toxicity, cell-based; settings: human, 24 h, 10 µM, compound concentration 10 uM, replicate 2
Below is a list of entries, each paired with its recorded Population Mitotic Cells (%) value.
Just the number in %, nothing appended.

Previously resolved entries follow.
molecule=C[C@H](NC(=O)CNC(=O)c1cccc(Cl)c1)c1ccccc1 measurement_name="Population Mitotic Cells (%)" unit_of_measurement=% assay_value=28
molecule=CSc1nc(NC2CCCC2)c([N+](=O)[O-])c(NC2CCCC2)n1 measurement_name="Population Mitotic Cells (%)" unit_of_measurement=% assay_value=11
molecule=CCc1nn2c(C)cc(C)nc2c1Cc1ccc(-c2nnc(C3CCNCC3)o2)cc1 measurement_name="Population Mitotic Cells (%)" unit_of_measurement=% assay_value=28

Now for the molecule whose Population Mitotic Cells (%) we want.
stdin: Recorded Population Mitotic Cells (%) of O=C(O)CCC/C=C\CC1C(O)CC(O)C1/C=C/C(O)COc1cccc(Cl)c1 (centres undefined) , please.
stdout: 30

###

tested on: U2OS; experiment: Multiplex assay against U2OS; type: toxicity, cell-based; settings: human, 12 h, 1 µM, compound concentration 1 uM, replicate 1
Measurement Name: Total Cell Count

Previously resolved entries follow.
molecule="O=c1ccc2ccc(OCCCCN3CCN(c4cccc5sccc45)CC3)cc2[nH]1 [BREXPIPRAZOLE]" test_target=U2OS assay_value=178
molecule=O=C(Nc1cc(-c2ccccc2)nn1-c1ccccc1F)c1ccc([N+](=O)[O-])cc1 test_target=U2OS assay_value=293
molecule=C[C@@H]1CC(=O)Nc2cccc(-c3ccc4c(c3)c(-c3cnn(C)c3)nn4C)c2N1 test_target=U2OS assay_value=233
molecule=COc1cc(C(=O)N2CC[C@@H](O)[C@@H](N)C2)cc2nc(-c3cc4ccccc4n3CC3CC3)n(C)c12.Cl test_target=U2OS assay_value=223

stdin: Recorded Total Cell Count of CN(C)C/C=C/C(=O)Nc1ccc(C(=O)N2CCCC(Nc3ncc(Cl)c(-c4c[nH]c5ccccc45)n3)C2)cc1 (stereo not given) , please.
stdout: 228

###

tested on: Fibroblast; test: Multiplex assay against human fibroblast; assay type: toxicity, cell-based; conditions: 12 h, 10 µM, compound concentration 10 uM, replicate 2
Below is a list of entries, each paired with its recorded Population Hoechst High Intensity Objects (%) value.
Just the number in %, nothing appended.

Previously resolved entries follow.
compound=C=CCN1C[C@H](C(=O)N(CCCN(C)C)C(=O)NCC)C[C@@H]2c3cccc4[nH]cc(c34)C[C@H]21 assay_value=5
compound="CN1C[C@H](C(=O)N[C@]2(C)O[C@@]3(O)[C@@H]4CCCN4C(=O)[C@H](Cc4ccccc4)N3C2=O)C[C@@H]2c3cccc4[nH]cc(c34)C[C@H]21.CS(=O)(=O)O [DIHYDROERGOTAMINE MESYLATE]" assay_value=8
compound="CN(C)C/C=C/C(=O)Nc1ccc(C(=O)N2CCCC(Nc3ncc(Cl)c(-c4c[nH]c5ccccc45)n3)C2)cc1 (stereo not given)" assay_value=8
compound="O=C(NCCNCC(O)COc1ccc(O)cc1)N1CCOCC1.O=C(NCCNCC(O)COc1ccc(O)cc1)N1CCOCC1.O=C(O)/C=C/C(=O)O (stereo not given) [XAMOTEROL FUMARATE]" assay_value=5

stdin: Recorded Population Hoechst High Intensity Objects (%) of CCC(=O)OCC(=O)[C@@]1(OC(=O)CC)[C@@H](C)C[C@H]2[C@@H]3CCC4=CC(=O)C=C[C@]4(C)[C@@]3(Cl)[C@@H](O)C[C@@]21C [BECLOMETHASONE DIPROPIONATE] , please.
stdout: 5

###

tested on: U2OS; assay: Multiplex assay against U2OS; type: toxicity, cell-based; conditions: human, 24 h, 1 µM, compound concentration 1 uM, replicate 2
Below is a list of entries, each paired with its recorded Population Apoptotic (%) value.
Just the number in %, nothing appended.

test_smiles=CSc1nc(NC2CCCC2)c([N+](=O)[O-])c(NC2CCCC2)n1 assay_value=84
test_smiles=COc1cc(C(=O)N2CC[C@@H](O)[C@@H](N)C2)cc2nc(-c3cc4ccccc4n3CC3CC3)n(C)c12.Cl assay_value=75
test_smiles=CC(C)(C)c1ccc(CSc2cnn(C(C)(C)C)c(=O)c2Cl)cc1 assay_value=100

Now for the compound whose Population Apoptotic (%) we want.
stdin: Recorded Population Apoptotic (%) of N[C@](CC1c2ccccc2Oc2ccccc21)(C(=O)O)[C@H]1C[C@@H]1C(=O)O , please.
stdout: 63

###

system: HEK-293T; test: Multiplex assay against HEK293T; type: toxicity, cell-based; settings: human, 12 h, 1 µM, compound concentration 1 uM, replicate 1
Measurement Name: Population Hoechst High Intensity Objects (%)
Just the number in %, nothing appended.

Previously resolved entries follow.
test_smiles=CN(C)C(=O)Cn1cc(-c2ccc(-c3nnc4ccccn34)cc2)cn1 unit_of_measurement=% assay_value=9
test_smiles=CCCCC[C@H](O)/C=C/[C@H]1[C@H](O)CC(=O)[C@@H]1CCCCCCC(=O)O unit_of_measurement=% assay_value=7
test_smiles=Cn1cc(C(=O)OCC2CCN(CCNS(C)(=O)=O)CC2)c2ccccc21 unit_of_measurement=% assay_value=7

stdin: Recorded Population Hoechst High Intensity Objects (%) of COc1ccc2[nH]c(I)c(CCNC(C)=O)c2c1 , please.
stdout: 5

###

tested on: U2OS; assay: Multiplex assay against U2OS; type: toxicity, cell-based; settings: human, 48 h, 1 µM, compound concentration 1 uM, replicate 1
Below is a list of entries, each paired with its recorded Total Cell Count value.
No unit in the answer, only the number.

compound=CN1CCC(C(=O)c2cccc(NC(=O)c3c(F)cc(F)cc3F)n2)CC1 measurement_name="Total Cell Count" assay_value=394
compound=Nc1nc(CC(=O)Nc2ccc(CCNC[C@H](O)c3ccccc3)cc2)cs1 measurement_name="Total Cell Count" assay_value=394

stdin: Recorded Total Cell Count of COc1cc2nc(N3CCN(C(=O)c4ccco4)CC3)nc(N)c2cc1OC.Cl [PRAZOSIN HYDROCHLORIDE] , please.
stdout: 388

# credit: ChEMBL document CHEMBL5058577
